# IC50 annotations
- assayed-target: T1, TBD-1 wt (anti-TROP2 Fab, hRS7)
- T1 construct: non-mutated Fab
- assay-explanation: competition ELISA, Fab on captured TROP2
Units required after the number.

Consider the reported IC50 for these binders:
binder	IC50
VDFCALYHWPVCGL (mask peptide for the TROP2 Fab) [Peptide-61]	1830 nM
VDFCYQYGWPICSRVD (mask peptide for the TROP2 Fab) [Peptide-45]	9290 nM
VDFCNLYHWPICAI (mask peptide for the TROP2 Fab) [Peptide-60]	470 nM

stdin: Reported IC50 for IDFCLLYKWPVCEL (mask peptide for the TROP2 Fab) [Peptide-49] : what is it?
stdout: 3730 nM

All values here come from patent US20230357429A1.
